# Tested on: SNB-75
# experiment.summary: NCI tumour cell line growth inhibition, 48 h
Activity calls are given as the source filed them. Rule as the data show it: active = GI50 up to about 1.1 µM and inactive = higher.
Outcome codes: T for active, F for inactive

[
  {
    "molecule": "COc1cccc2ccc(C(=O)c3ccccc3)nc12",
    "assigned.class": "F"
  },
  {
    "molecule": "O=C1C(F)=CC(COC(c2ccccc2)(c2ccccc2)c2ccccc2)OC1n1cc(F)c(=O)[nH]c1=O (stereo unspecified)",
    "assigned.class": "F"
  },
  {
    "molecule": "Cc1ccc(C)c(NC(=O)CC/C(=N\\NC(=O)C(=O)NN)C(C)C(=O)c2ccc(O)cc2)c1 (stereo unspecified)",
    "assigned.class": "F"
  },
  {
    "molecule": "C=C1C(=O)C[C@H]2C(=C)C(=O)O[C@@H]2C2C1CC[C@@]2(C)O (stereo partly specified)",
    "assigned.class": "F"
  },
  {
    "molecule": "CCOC(=O)c1c(SCCO)n(-c2ccccc2)c(=S)n(-c2ccccc2)c1=O",
    "assigned.class": "F"
  },
  {
    "molecule": "O=C(NN1C(=O)C(Cl)C1c1ccc(O)cc1)c1ccccc1O (stereo unspecified)",
    "assigned.class": "F"
  },
  {
    "molecule": "CC1=NC(=Cc2ccc(O)cc2)C(=O)N1n1c(-c2ccccc2)nc2ccccc2c1=O",
    "assigned.class": "F"
  },
  {
    "molecule": "O=C(OCc1nc2ccc(Br)cc2c(=O)n1-c1ccccc1)c1ccccc1O",
    "assigned.class": "F"
  },
  {
    "molecule": "CCOC(=O)CN(Cn1cncn1)Cn1cncn1",
    "assigned.class": "F"
  },
  {
    "molecule": "O=C(CC1(O)C(=O)Nc2c(Cl)ccc(Cl)c21)c1ccc(Cl)cc1Cl (stereo unspecified)",
    "assigned.class": "F"
  },
  {
    "molecule": "COc1cccc(C2c3cc4c(cc3OC(N3CCOCC3)C2C)OCO4)c1O (stereo unspecified)",
    "assigned.class": "F"
  },
  {
    "molecule": "COC1=C(C)C(=O)C2=C(C1=O)[C@@H]1[C@@H]3Cc4c(OC(=O)CO)c(C)c(OC)c(O)c4[C@H](CNC(=O)C(C)=O)N3[C@@H](C#N)[C@H](C2)N1C",
    "assigned.class": "T"
  },
  {
    "molecule": "COc1ccc(CC#C/C=C/C(=O)NCC(C)C)cc1",
    "assigned.class": "F"
  },
  {
    "molecule": "O=C(CCN1CCCCC1)c1csc2ccccc12",
    "assigned.class": "F"
  },
  {
    "molecule": "COc1ccccc1NCc1nnc(CCCCCCCCc2nnc(CNc3ccccc3OC)o2)o1",
    "assigned.class": "F"
  },
  {
    "molecule": "COc1ccc(C(=O)Cn2c(C(=O)/C=C/c3ccco3)nc3ccccc32)cc1",
    "assigned.class": "F"
  },
  {
    "molecule": "C=CC(CBr)CCC(Br)C(C)(C)Br (stereo unspecified)",
    "assigned.class": "F"
  },
  {
    "molecule": "O=C(/C=C\\c1ccc(Cl)cc1Cl)c1cccs1",
    "assigned.class": "F"
  },
  {
    "molecule": "CC(=O)C1=CN=C2C(=O)N(c3ccccc3)N(C)C12C (stereo unspecified)",
    "assigned.class": "F"
  },
  {
    "molecule": "Cc1cccc(NC(N)=S)c1",
    "assigned.class": "F"
  },
  {
    "molecule": "COc1cc2c(c(O)c1O)C(=O)C1CCC(=O)N1C2c1cccc2ccccc12 (stereo unspecified)",
    "assigned.class": "F"
  }
]
